- experiment.notes: inhibitors of the yeast RAM network, pilot screen, dse1pr::URA3 reporter, 5-FOA selection (AID 869);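 also: 0% = DMSO wells with no growth and 100% = 10 µM 1-NA-PP1 with full growth; RAM network block rescues cells from 5-FOA so hits raise OD615 growth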
- stated.conditions: S. cerevisiae dse1pr::URA3 5-FOA growth, OD615, 2 d; at 10 µM; stronger effect = higher value; strain carries analog-sensitive mutant Cbk1 kinase
reported.property: inhibition (%)

[[record]]
compound = "COc1ccc(OC)c(S(=O)(=O)NCc2cn3c(C)csc3n2)c1"
measured_result = 0.045

[[record]]
compound = "Cc1cc2nc3c(c(=O)n2[nH]1)CCCC3"
measured_result = 1.09

[[record]]
compound = "COc1ccccc1C1CC(=O)NC(SCC(=O)Nc2ccccc2)=C1C#N (stereo unspecified)"
measured_result = 3.57

[[record]]
compound = "CCCN(CCC)S(=O)(=O)c1ccc(C(=O)N2CCC(=O)c3ccccc32)cc1"
measured_result = 2.23

[[record]]
compound = "COC(=O)C(CC(C)C)Oc1ccc2c(C)cc(=O)oc2c1 (stereo unspecified)"
measured_result = 1.14

[[record]]
compound = "Cc1c(C(=O)NCC(C)C)sc2nc(-c3ccc(F)cc3)cn12"
measured_result = 2.99

[[record]]
compound = "CCOC(=O)C1=C(C)N=c2s/c(=C\\c3ccncc3)c(=O)n2C1c1ccc2c(c1)OCO2 (stereo unspecified)"
measured_result = 3.46

[[record]]
compound = "CSc1nc2ccc(NC(=O)C3CC(=O)N(Cc4ccco4)C3)cc2s1 (stereo unspecified)"
measured_result = 1.02

[[record]]
compound = "Cc1ccccc1-c1nc(CN2CCC(C(=O)N3CCN(c4ccccn4)CC3)CC2)c(C)o1"
measured_result = 1.33

[[record]]
compound = "CNC(=O)C1C2C=CC3(O2)C1C(=O)N(CCOC)C3C(=O)NCc1ccc(OC)cc1 (stereo unspecified)"
measured_result = 1.67

[[record]]
compound = "CCOC(=O)c1c(N)sc2c(OC)c(Br)ccc12"
measured_result = -2.46


* * *

- experiment.notes: growth suppression of beta-catenin knockout HCT116, pilot screen, human colon tumor cells (AID 823);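 also: 0% = wells killed by 20 µM Hyamine and 100% = untreated DMSO cell wells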
- stated.conditions: CellTiter-Glo, 60 h, at 10 µM, stronger effect = lower value
Results filed as inconclusive are left out.
This section presents compounds with their documented viability values.
reported.property: viability (%)

[[record]]
compound = "CCCCNC(=O)c1ccc(CS(=O)(=O)c2ccc(OC)cc2)o1"
measured_result = 107

[[record]]
compound = "COc1ccc(C)cc1NC(=O)c1cc2c(CO)cnc(C)c2oc1=N"
measured_result = 97.5

[[record]]
compound = "CC(=O)c1ccc(-n2nncc2C)cc1"
measured_result = 108

[[record]]
compound = "CCO/C(C)=C1\\C(=O)N(CC)c2ccccc21"
measured_result = 96.7

[[record]]
compound = "O=C1NCCCC1C(=O)NCCN1C(=O)CCC1=O (stereo unspecified)"
measured_result = 96.7

[[record]]
compound = "CCN(CCCNS(=O)(=O)c1ccc2c(c1)CCN2C(C)=O)c1cccc(C)c1"
measured_result = 75.3


* * *

- system.tested: Receptor tyrosine-protein kinase erbB-2 (Homo sapiens) (UniProt P04626)
- Sequence (P04626 whole entry, looked up): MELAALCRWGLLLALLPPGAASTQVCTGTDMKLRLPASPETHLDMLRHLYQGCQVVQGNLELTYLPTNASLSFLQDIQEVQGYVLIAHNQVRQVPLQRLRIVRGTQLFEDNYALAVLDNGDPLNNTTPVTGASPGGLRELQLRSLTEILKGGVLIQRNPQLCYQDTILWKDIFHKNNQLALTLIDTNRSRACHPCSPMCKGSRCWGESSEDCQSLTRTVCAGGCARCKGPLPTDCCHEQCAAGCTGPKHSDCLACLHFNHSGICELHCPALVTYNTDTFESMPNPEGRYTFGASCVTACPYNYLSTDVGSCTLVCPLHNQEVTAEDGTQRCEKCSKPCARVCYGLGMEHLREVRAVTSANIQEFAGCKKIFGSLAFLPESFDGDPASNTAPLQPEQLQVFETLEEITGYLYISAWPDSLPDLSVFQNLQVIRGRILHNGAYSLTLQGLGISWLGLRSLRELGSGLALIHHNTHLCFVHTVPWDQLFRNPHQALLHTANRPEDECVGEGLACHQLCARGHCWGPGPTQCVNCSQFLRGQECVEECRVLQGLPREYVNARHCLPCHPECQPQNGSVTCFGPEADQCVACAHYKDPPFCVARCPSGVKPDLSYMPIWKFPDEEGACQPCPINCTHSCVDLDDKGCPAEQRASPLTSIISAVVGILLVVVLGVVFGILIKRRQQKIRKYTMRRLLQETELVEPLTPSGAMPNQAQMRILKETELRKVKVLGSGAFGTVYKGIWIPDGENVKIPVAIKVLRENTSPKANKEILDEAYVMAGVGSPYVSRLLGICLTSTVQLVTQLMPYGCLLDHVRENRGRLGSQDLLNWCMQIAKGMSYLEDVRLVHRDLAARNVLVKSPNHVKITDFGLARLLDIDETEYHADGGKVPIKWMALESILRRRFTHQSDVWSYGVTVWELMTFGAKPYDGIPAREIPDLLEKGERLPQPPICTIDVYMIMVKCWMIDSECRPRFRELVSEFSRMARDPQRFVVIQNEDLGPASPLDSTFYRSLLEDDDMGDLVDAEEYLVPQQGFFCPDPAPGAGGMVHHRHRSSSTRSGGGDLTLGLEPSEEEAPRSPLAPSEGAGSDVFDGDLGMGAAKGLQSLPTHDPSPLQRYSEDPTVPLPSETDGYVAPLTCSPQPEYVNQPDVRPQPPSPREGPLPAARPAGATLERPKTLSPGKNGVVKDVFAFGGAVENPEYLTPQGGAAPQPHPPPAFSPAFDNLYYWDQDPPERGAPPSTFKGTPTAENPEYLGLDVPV
- experiment.notes: reducers of endogenous Her2 protein level, primary screen, SKBR3 breast tumor cells, AlphaScreen, ATP viability (AID 461);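 also: lower value means less Her2 protein in the cells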
- stated.conditions: 18-24 h, at 10 µM, stronger effect = lower value
This section presents compounds with their documented Her2 level values.
reported.property: Her2 level (%)

[[record]]
compound = "C=CCOC(=O)C1=C(C)OC(N)=C(C#N)C1c1ccc2c(c1)OCO2 (stereo unspecified)"
units = "%"
measured_result = 90.5

[[record]]
compound = "Cc1cc(C)n(-c2nc3c(c(=O)n(Cc4ccc(Cl)c(Cl)c4)c(=O)n3C)n2C)n1"
units = "%"
measured_result = 99

[[record]]
compound = "c1ccc(Cn2nnnc2CN2CCN(c3ncccn3)CC2)cc1"
units = "%"
measured_result = 97.5

[[record]]
compound = "O=C(CSc1nnc(CNC(=O)c2cccs2)o1)Nc1cccc(C(F)(F)F)c1"
units = "%"
measured_result = 98.5

[[record]]
compound = "COc1cccc(CNc2nc3nc(C)c(Cl)c(C)n3n2)c1"
units = "%"
measured_result = 99.5

[[record]]
compound = "O=C(CCN1C(=O)COc2ccccc21)N1CCN(c2ccccn2)CC1"
units = "%"
measured_result = 96.5

[[record]]
compound = "c1ccc2c(Cn3ccnc3)c[nH]c2c1"
units = "%"
measured_result = 114

[[record]]
compound = "COc1ccc(-n2nnnc2-c2cccc(OC)c2)cc1"
units = "%"
measured_result = 87.5

[[record]]
compound = "CCOc1ccc(C(=O)N2CCN(c3ccccc3)CC2)cc1OCC"
units = "%"
measured_result = 102

[[record]]
compound = "Nc1ccc(C(=O)O)c(O)c1"
units = "%"
measured_result = 113

[[record]]
compound = "Cc1cc(C)nc(Sc2ccc3nnc(C(F)(F)C(F)(F)C(F)(F)F)n3n2)n1"
units = "%"
measured_result = 86.5

